Ref: ChEMBL document CHEMBL1926518

Test system: Haemophilus influenzae
method.description: Antibacterial activity against Haemophilus influenzae ATCC 49247 by broth microdilution technique
Format: functional
Below, each entry is listed alongside its reported MIC.
assay.metric: MIC

[[record]]
input_smiles = "CCOC(=O)c1cn(C2CC2)c2ccc(C#CCN3CCNCC3)cc2c1=O"
study_target = "Haemophilus influenzae"
assay_metric = "MIC"
result = "> 64 µg/mL"

[[record]]
input_smiles = "CCOC(=O)c1cn(C2CC2)c2ccc(C#CCN3CCN(C(=O)OC(C)(C)C)CC3)cc2c1=O"
study_target = "Haemophilus influenzae"
assay_metric = "MIC"
result = "> 64 µg/mL"

[[record]]
input_smiles = "CCOC(=O)c1cn(CC)c2ccc(C#CCN3CCN(CCC(=O)O[C@H]4[C@H](C)O[C@@H](O[C@H]5[C@H](C)[C@@H](O[C@@H]6O[C@H](C)C[C@H](N(C)C)[C@H]6O)[C@](C)(O)C[C@@H](C)CN(C)[C@H](C)[C@@H](OC)[C@](C)(O)[C@@H](CC)OC(=O)[C@@H]5C)C[C@@]4(C)OC)CC3)cc2c1=O"
study_target = "Haemophilus influenzae"
assay_metric = "MIC"
result = "32 µg/mL"


====

Below, each entry is listed alongside its reported MIC.
System: Staphylococcus aureus
method.description: Antibacterial activity against constitutive macrolide, licosamide and streptogramin-resistant Staphylococcus aureus PK2 by broth microdilution technique
Format: functional
assay.metric: MIC

[[record]]
input_smiles = "CCOC(=O)c1cn(CC)c2ccc(C#CCN3CCN(CCC(=O)O[C@H]4[C@H](C)O[C@@H](O[C@H]5[C@H](C)[C@@H](O[C@@H]6O[C@H](C)C[C@H](N(C)C)[C@H]6O)[C@](C)(OC)C[C@@H](C)C(=O)[C@H](C)[C@@H](O)[C@](C)(O)[C@@H](CC)OC(=O)[C@@H]5C)C[C@@]4(C)OC)CC3)cc2c1=O"
result = "> 64 µg/mL"

[[record]]
input_smiles = "CC[C@H]1OC(=O)[C@H](C)[C@@H](O[C@H]2C[C@@](C)(OC)[C@@H](OC(=O)CCN3CCN(CC#Cc4ccc5c(c4)c(=O)c(C(=O)O)cn5CC)CC3)[C@H](C)O2)[C@H](C)[C@@H](O[C@@H]2O[C@H](C)C[C@H](N(C)C)[C@H]2O)[C@](C)(O)C[C@@H](C)CN(C)[C@H](C)[C@@H](OC)[C@]1(C)O"
result = "> 64 µg/mL"


====

Test system: Streptococcus pneumoniae
method.description: Antibacterial activity against constitutive macrolide, licosamide and streptogramin-resistant Streptococcus pneumoniae 58 Spain by broth microdilution technique
Type: functional
assay.metric: MIC (µg/mL)

[[record]]
compound = "CCOC(=O)c1cn(CC)c2ccc(C#CCN3CCN(CCC(=O)O[C@H]4[C@H](C)O[C@@H](O[C@H]5[C@H](C)[C@@H](O[C@@H]6O[C@H](C)C[C@H](N(C)C)[C@H]6O)[C@](C)(O)C[C@@H](C)CN(C)[C@H](C)[C@@H](OC)[C@](C)(O)[C@@H](CC)OC(=O)[C@@H]5C)C[C@@]4(C)OC)CC3)cc2c1=O"
study_target = "Streptococcus pneumoniae"
assay_metric = "MIC"
censor_symbol = "="
result_number = 1

[[record]]
compound = "CC[C@H]1OC(=O)[C@H](C)[C@@H](O[C@H]2C[C@@](C)(OC)[C@@H](OCCCN3CCN(C/C=C/c4ccc5c(c4)c(=O)c(C(=O)O)cn5CC)CC3)[C@H](C)O2)[C@H](C)[C@@H](O[C@@H]2O[C@H](C)C[C@H](N(C)C)[C@H]2O)[C@](C)(O)C[C@@H](C)CN(C)[C@H](C)[C@@H](O)[C@]1(C)O"
study_target = "Streptococcus pneumoniae"
assay_metric = "MIC"
censor_symbol = "="
result_number = 32

[[record]]
compound = "CC[C@H]1OC(=O)[C@H](C)[C@@H](O[C@H]2C[C@@](C)(OC)[C@@H](O)[C@H](C)O2)[C@H](C)[C@@H](O[C@@H]2O[C@H](C)C[C@H](N(C)C)[C@H]2O)[C@](C)(OC)C[C@@H](C)C(=O)[C@H](C)[C@@H](O)[C@]1(C)O [CLARITHROMYCIN]"
study_target = "Streptococcus pneumoniae"
assay_metric = "MIC"
censor_symbol = ">"
result_number = 64

[[record]]
compound = "CCOC(=O)c1cn(C2CC2)c2ccc(CCCN3CCN(CCC(=O)O[C@H]4[C@H](C)O[C@@H](O[C@H]5[C@H](C)[C@@H](O[C@@H]6O[C@H](C)C[C@H](N(C)C)[C@H]6O)[C@](C)(O)C[C@@H](C)CN(C)[C@H](C)[C@@H](OC)[C@](C)(O)[C@@H](CC)OC(=O)[C@@H]5C)C[C@@]4(C)OC)CC3)cc2c1=O"
study_target = "Streptococcus pneumoniae"
assay_metric = "MIC"
censor_symbol = "="
result_number = 32

[[record]]
compound = "CCOC(=O)c1cn(CC)c2ccc(/C=C/CN3CCN(C(=O)OC(C)(C)C)CC3)cc2c1=O"
study_target = "Streptococcus pneumoniae"
assay_metric = "MIC"
censor_symbol = ">"
result_number = 64

[[record]]
compound = "CCOC(=O)c1cn(C2CC2)c2ccc(CCCN3CCN(CCC(=O)O[C@H]4[C@H](C)O[C@@H](O[C@H]5[C@H](C)[C@@H](O[C@@H]6O[C@H](C)C[C@H](N(C)C)[C@H]6O)[C@](C)(OC)C[C@@H](C)C(=O)[C@H](C)[C@@H](O)[C@](C)(O)[C@@H](CC)OC(=O)[C@@H]5C)C[C@@]4(C)OC)CC3)cc2c1=O"
study_target = "Streptococcus pneumoniae"
assay_metric = "MIC"
censor_symbol = "="
result_number = 4

[[record]]
compound = "CCOC(=O)c1cn(C2CC2)c2ccc(C#CCN3CCNCC3)cc2c1=O"
study_target = "Streptococcus pneumoniae"
assay_metric = "MIC"
censor_symbol = ">"
result_number = 64

[[record]]
compound = "CC[C@H]1OC(=O)[C@H](C)[C@@H](O[C@H]2C[C@@](C)(OC)[C@@H](OCCCN3CCN(CCCc4ccc5c(c4)c(=O)c(C(=O)O)cn5CC)CC3)[C@H](C)O2)[C@H](C)[C@@H](O[C@@H]2O[C@H](C)C[C@H](N(C)C)[C@H]2O)[C@](C)(O)C[C@@H](C)CN(C)[C@H](C)[C@@H](O)[C@]1(C)O"
study_target = "Streptococcus pneumoniae"
assay_metric = "MIC"
censor_symbol = "="
result_number = 8

